test: Inhibition of N-terminal 6-His tagged full length dog 11betaHSD1 incubated for 25 mins by HTRF assay; set-up: species or system Canis lupus familiaris
quantity-measured: IC50 (nM)
Give just the numeric value; nM need not be written.

Request: Give IC50 for the following compound: CCCSc1nc(N2CCC[C@@H](CC(=O)O)C2)ccc1C(=O)NC1CCCCC1 [AZD-4017]
Result: 3770

Request: Give IC50 for the following compound: CC(C)(C)c1c(C(=O)NC2C3CC4CC(C3)CC2C4)cnn1-c1ccc(C(=O)O)cc1 (configuration not stated)
Result: 8

====

test: Percentage unbound in rat plasma at 37 degC by equilibrium dialysis method; format: ADME, cell-free
quantity-measured: fraction unbound
Give a plain numeric answer without units written out.

Request: Give fraction unbound for the following compound: CC(C)c1c(C(=O)NC2C3CC4CC(C3)CC2C4)cnn1-c1ccc(C(=O)O)cc1 (stereo not given)
Result: 0.036

Request: Give fraction unbound for the following compound: CC1(c2c(C(=O)NC3C4CC5CC(C4)CC3C5)cnn2-c2ccc(C(=O)O)cc2)CC1 (stereo not given)
Result: 0.033

Request: Give fraction unbound for the following compound: O=C(O)c1ccc(-n2ncc(C(=O)NC3C4CC5CC(C4)CC3C5)c2C2CCC2)cc1 (stereo not given)
Result: 0.012

Request: Give fraction unbound for the following compound: CC(C)(C)c1c(C(=O)NC2C3CC4CC(C3)CC2C4)cnn1-c1ccc(C(=O)O)cc1 (stereo not given)
Result: 0.013

Request: Give fraction unbound for the following compound: O=C(O)c1ccc(-n2ncc(C(=O)NC3C4CC5CC(C4)CC3C5)c2SC2CCCC2)cc1 (stereo not given)
Result: 0.0015

====

test: Volume of distribution at steady state in mouse at 1 and 3 mg/kg; type: ADME, organism-based; parameters: dose 3 mg/kg; settings: in vivo, read-out: Vdss
quantity-measured: Vd
Remember to follow the number with its unit.

Request: Give Vd for the following compound: CC(C)(C)c1c(C(=O)NC2C3CC4CC(C3)CC2C4)cnn1-c1ccc(C(=O)O)cc1 (stereo unspecified)
Result: 0.4 L/kg

====

test: Oral bioavailability in mouse at 1 and 3 mg/kg; type: ADME, organism-based; settings: in vivo
quantity-measured: bioavailability (%)
Give just the numeric value; % need not be written.

Request: Give bioavailability for the following molecule: CC(C)(C)c1c(C(=O)NC2C3CC4CC(C3)CC2C4)cnn1-c1ccc(C(=O)O)cc1 (stereo unspecified)
Result: 100

====

test: Percentage unbound in rat plasma at 37 degC by equilibrium dialysis method; assay type: ADME, cell-free
quantity-measured: fraction unbound
Give a plain numeric answer without units written out.

Request: Give fraction unbound for the following compound: O=C(O)c1ccc(-n2ncc(C(=O)NC3C4CC5CC(C4)CC3C5)c2SC2CCCCC2)cc1 (centres undefined)
Result: 0.0013

Request: Give fraction unbound for the following compound: CCCSc1c(C(=O)N[C@H]2C3CC4CC2C[C@](OC(F)F)(C4)C3)cnn1-c1ccc(C(=O)O)cc1
Result: 0.026

Request: Give fraction unbound for the following compound: CCc1c(C(=O)NC2C3CC4CC(C3)CC2C4)cnn1-c1ccc(C(=O)O)cc1 (centres undefined)
Result: 0.06

Request: Give fraction unbound for the following compound: O=C(O)c1ccc(-n2cc(C(=O)NC3C4CC5CC(C4)CC3C5)cn2)cc1 (centres undefined)
Result: 0.107

Request: Give fraction unbound for the following compound: O=C(O)c1ccc(-n2ncc(C(=O)NC3C4CC5CC(C4)CC3C5)c2C2CC2)cc1 (centres undefined)
Result: 0.045

Request: Give fraction unbound for the following compound: CCCSc1c(C(=O)NC2CCCCC2)cnn1[C@H]1CC[C@H](C(=O)O)CC1
Result: 0.093

Request: Give fraction unbound for the following compound: CCCSc1c(C(=O)N[C@H]2C3CC4CC2C[C@](OC)(C4)C3)cnn1-c1ccc(C(=O)O)cc1
Result: 0.285

Request: Give fraction unbound for the following compound: CCCSc1c(C(=O)N[C@H]2C3CC4CC2C[C@](S(C)(=O)=O)(C4)C3)cnn1-c1ccc(C(=O)O)cc1
Result: 0.134

Request: Give fraction unbound for the following compound: CCCSc1c(C(=O)NC2CCCCC2)cnn1-c1ccc(C(=O)O)cc1
Result: 0.04

Request: Give fraction unbound for the following compound: CCCSc1c(C(=O)NC2CCCCC2)cnn1C
Result: 0.132

Request: Give fraction unbound for the following compound: CCCSc1c(C(=O)NC2CCCCC2)cnn1-c1cccc(C(=O)O)c1
Result: 0.02

Request: Give fraction unbound for the following compound: Cc1c(C(=O)NC2C3CC4CC(C3)CC2C4)cnn1-c1ccc(C(=O)O)cc1 (centres undefined)
Result: 0.127

Request: Give fraction unbound for the following compound: CCCSc1c(C(=O)NC2C3CC4CC(C3)CC2C4)cnn1-c1ccc(C(=O)O)cc1 (centres undefined)
Result: 0.005

Request: Give fraction unbound for the following compound: CSc1c(C(=O)NC2C3CC4CC(C3)CC2C4)cnn1-c1ccc(C(=O)O)cc1 (centres undefined)
Result: 0.0336

Request: Give fraction unbound for the following compound: CCSc1c(C(=O)NC2C3CC4CC(C3)CC2C4)cnn1-c1ccc(C(=O)O)cc1 (centres undefined)
Result: 0.0131

Request: Give fraction unbound for the following compound: O=C(O)c1ccc(-n2ncc(C(=O)NC3C4CC5CC(C4)CC3C5)c2C(F)(F)F)cc1 (centres undefined)
Result: 0.045

Request: Give fraction unbound for the following compound: CCCSc1c(C(=O)N(C)C2CCCCC2)cnn1-c1ccc(C(=O)O)cc1
Result: 0.025

Request: Give fraction unbound for the following compound: CCCSc1c(C(=O)N[C@H]2C3CC4CC2C[C@](O)(C4)C3)cnn1-c1ccc(C(=O)O)cc1
Result: 0.105

Request: Give fraction unbound for the following compound: O=C(O)c1ccc(-n2ncc(C(=O)NC3C4CC5CC(C4)CC3C5)c2C2CCCC2)cc1 (centres undefined)
Result: 0.004
